B1: Osa-1-4 twister ribozyme (parent)
chain: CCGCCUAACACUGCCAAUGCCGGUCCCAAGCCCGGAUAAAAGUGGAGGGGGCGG

variants of: B1; test: self-cleavage, relative activity (ratio to wild type); higher = more cleavage; co-transcriptional
variants and their reported self-cleavage
Format: numeric value only, no unit, no commentary.

A10U G51U	0.03
C14A G35A	0.12
A16U G42A	0.8
A16U G51U	0.39
A17U A38U	1.02

Task: self-cleavage lookup needed for G44U U43A , thanks.
Output: 0.66
